meta.source: patent US12325697B2

- Target or system: Recombinant human c-Cbl (aa 47-435) (Homo sapiens (Human))
- Sequence (P22681 47-435): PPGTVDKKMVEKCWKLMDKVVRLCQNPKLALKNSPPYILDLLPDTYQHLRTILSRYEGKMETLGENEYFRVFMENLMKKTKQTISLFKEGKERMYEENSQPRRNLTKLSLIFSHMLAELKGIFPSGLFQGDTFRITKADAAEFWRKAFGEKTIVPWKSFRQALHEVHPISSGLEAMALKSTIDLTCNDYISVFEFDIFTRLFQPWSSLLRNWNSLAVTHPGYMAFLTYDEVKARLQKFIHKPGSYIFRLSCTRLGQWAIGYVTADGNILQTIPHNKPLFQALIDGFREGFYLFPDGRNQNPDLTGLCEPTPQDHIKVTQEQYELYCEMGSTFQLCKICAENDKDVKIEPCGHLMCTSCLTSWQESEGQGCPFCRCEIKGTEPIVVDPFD
- Test summary: c-Cbl Biochemical Assay (TR-FRET)
pIC50: −log10 of the molar value.
Each entry below carries its recorded pIC50.

CCOc1cc(-c2ccc(C#N)cc2-c2nncn2C)cc(N2Cc3ccc(CO)cc3C2=O)n1	6.00 to 6.70
Cn1cnnc1-c1cc(C#N)ccc1-c1cc(C2CC2)nc(N2Cc3ccc(CN4CC5(COC5)C4)cc3C2=O)c1	≥ 6.70
Cn1cnnc1-c1cc(C#N)ccc1-c1cc(C2CC2)nc(N2Cc3ccc(COCC4CCCC4)cc3C2=O)c1	≥ 6.70

Ask | Answer with the recorded pIC50 for the compound listed here: CCNc1cnc(N2Cc3c(cc(CO)cc3C(F)(F)F)C2=O)cc1-c1ccc(F)cc1-c1nncn1C
Reply | 4.30 to 5.00

Ask | Report measured pIC50; entry is Cn1cnnc1-c1cc(C#N)ccc1-c1cc(C2CC2)nc(N2Cc3cnc(CO)cc3C2=O)c1
Reply | ≥ 6.70

Ask | Answer with reported pIC50 of C[C@H](NCC1COC1)c1ccc2c(c1)C(=O)N(c1cc(-c3ccc(C#N)cc3-c3nncn3C)cc(C3CC3)n1)C2
Reply | ≥ 6.70

Ask | Indicate its recorded pIC50; the compound in question is Cn1cnnc1-c1cc(Cl)ccc1-c1cc(C2CC2)nc(N2Cc3ccc(CO)cc3C2=O)c1
Reply | ≥ 6.70

Ask | Please indicate pIC50 recorded for Cn1cnnc1-c1cc(C#N)ccc1-c1cccc(N2Cc3ccc(CNCC4CC4)cc3C2=O)c1
Reply | ≥ 6.70
